Exercise: for every item that follows, state its recorded pIC50.
biological target: wild-type FLT3 receptor (Homo sapiens); test: Cell-based FLT3 receptor ELISA (FLT ligand-induced phosphorylation in Baf3 FLT3 cells); settings: 100 ng/mL Flt ligand, uncertainty ±20%
Sequence (P36888 27-993): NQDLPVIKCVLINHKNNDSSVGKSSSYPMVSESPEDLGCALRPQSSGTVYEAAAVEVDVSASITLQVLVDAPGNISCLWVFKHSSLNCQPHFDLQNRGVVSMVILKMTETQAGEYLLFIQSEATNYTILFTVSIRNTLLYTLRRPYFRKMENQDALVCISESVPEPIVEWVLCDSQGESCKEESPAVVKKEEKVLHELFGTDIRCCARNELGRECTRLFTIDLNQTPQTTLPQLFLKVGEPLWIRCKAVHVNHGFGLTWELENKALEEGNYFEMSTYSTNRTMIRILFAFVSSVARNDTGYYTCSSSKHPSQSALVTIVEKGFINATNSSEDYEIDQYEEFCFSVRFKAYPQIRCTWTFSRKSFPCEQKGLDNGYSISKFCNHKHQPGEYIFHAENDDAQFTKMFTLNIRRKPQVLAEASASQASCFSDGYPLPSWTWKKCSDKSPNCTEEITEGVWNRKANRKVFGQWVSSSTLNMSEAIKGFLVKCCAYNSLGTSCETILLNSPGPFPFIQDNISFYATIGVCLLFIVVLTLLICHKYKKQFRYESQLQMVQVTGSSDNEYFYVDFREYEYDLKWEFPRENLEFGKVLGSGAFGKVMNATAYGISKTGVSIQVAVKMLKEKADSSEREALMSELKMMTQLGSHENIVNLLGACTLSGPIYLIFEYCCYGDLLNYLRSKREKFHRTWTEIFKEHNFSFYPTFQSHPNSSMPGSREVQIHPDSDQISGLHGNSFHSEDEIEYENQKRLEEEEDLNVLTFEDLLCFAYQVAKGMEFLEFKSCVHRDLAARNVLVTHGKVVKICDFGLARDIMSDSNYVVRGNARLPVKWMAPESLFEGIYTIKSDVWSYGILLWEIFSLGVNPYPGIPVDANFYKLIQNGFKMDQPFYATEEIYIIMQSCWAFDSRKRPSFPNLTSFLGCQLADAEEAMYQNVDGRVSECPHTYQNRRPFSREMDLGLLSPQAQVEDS
Quick note: pIC50 means taking -log10 of the concentration in moles per liter.

Query: Give recorded pIC50 with wild-type FLT3 receptor (Homo sapiens) for the following compound: CN1CCCN(CCCOc2ccc3c(C4CCN(C(=O)Nc5ccc(N6CCOCC6)cc5)CC4)ncnc3c2)CC1 [Example 125]
Response: 7.18

Query: Give recorded pIC50 with wild-type FLT3 receptor (Homo sapiens) for the following compound: CC(C)Oc1ccc(NC(=O)N2CCC(c3ncnc4cc(NCCCN5CCN(C)CC5)ccc34)CC2)cc1 [Example 102]
Response: 8.30

Query: Give recorded pIC50 with wild-type FLT3 receptor (Homo sapiens) for the following compound: O=C1CCCN1CCCOc1ccc2c(C3CCN(C(=O)Nc4ccc(N5CCOCC5)cc4)CC3)ncnc2c1 [Example 68]
Response: 7.54

Query: Give recorded pIC50 with wild-type FLT3 receptor (Homo sapiens) for the following compound: O=C1CCCN1CCCOc1ccc2c(C3CCN(C(=O)Nc4ccc(N5CCCC5)nc4)CC3)ncnc2c1 [Example 89]
Response: 9.00
